Target Under Test: T1, IFN-γ receptor (IFNGR; IFNGR1 and IFNGR2) on human cells (human, UniProt P15260 18-489; P38484 22-337)
T1 sequence (looked up) 1: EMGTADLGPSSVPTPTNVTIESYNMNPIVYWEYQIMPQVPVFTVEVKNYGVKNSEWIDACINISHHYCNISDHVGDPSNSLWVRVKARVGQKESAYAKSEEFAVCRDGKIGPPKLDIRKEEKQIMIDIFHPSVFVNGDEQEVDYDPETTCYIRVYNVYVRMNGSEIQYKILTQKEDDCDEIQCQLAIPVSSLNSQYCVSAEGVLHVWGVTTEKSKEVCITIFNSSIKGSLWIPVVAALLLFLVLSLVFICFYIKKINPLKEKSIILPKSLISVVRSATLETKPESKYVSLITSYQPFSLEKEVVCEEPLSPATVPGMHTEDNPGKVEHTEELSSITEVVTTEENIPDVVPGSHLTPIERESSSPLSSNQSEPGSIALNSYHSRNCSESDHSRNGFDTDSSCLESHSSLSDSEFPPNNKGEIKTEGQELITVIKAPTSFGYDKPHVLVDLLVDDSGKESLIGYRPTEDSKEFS
T1 sequence (looked up) 2: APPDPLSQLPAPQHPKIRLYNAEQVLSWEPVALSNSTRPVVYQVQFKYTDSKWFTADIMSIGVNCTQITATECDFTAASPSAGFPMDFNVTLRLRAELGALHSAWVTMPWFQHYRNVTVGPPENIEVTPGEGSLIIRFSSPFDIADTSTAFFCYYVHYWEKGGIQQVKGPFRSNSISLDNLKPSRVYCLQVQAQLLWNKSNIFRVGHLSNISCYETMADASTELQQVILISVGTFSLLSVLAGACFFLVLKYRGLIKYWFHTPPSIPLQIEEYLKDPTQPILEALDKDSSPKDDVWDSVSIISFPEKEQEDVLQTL
Assay Name: cell-based or functional assay
EC50 (ng/mL)-% pSTAT1, CD14+CD16+ (Intermediate) monocytes of human PBMCs values for the binders below.
Numeric answer only, unit ng/mL assumed.

Solved cases below.
1. Compound 2, mono-mPEG-MAL-20K-rhIFN-γ-1b-M135C (ligand, Cys135 thioether-linked to linear mPEG-maleimide of about 20,000 daltons (mPEG-MAL-20K), succinimide ring closed, also called mPEG-MAL-20K-M135C-IFN-γ; M135C 20K linear) MQDPYVKEAENLKKYFNAGHSDVADNGTLFLGILKNWKEESDRKIMQSQIVSFYFKLFKNFKDDQSIQKSVETIKEDMNVKFFNSNKKKRDDFEKLTNYSVTDLNVQRKAIHELIQVMAELSPAAKTGKRKRSQCLFRGR | 0.179
2. rhIFN-γ-1b (wild-type recombinant human interferon-γ-1b) (ligand, also called wt (rhIFN-γ-1b); WT IFN-γ-1b (Actimmune)) MQDPYVKEAENLKKYFNAGHSDVADNGTLFLGILKNWKEESDRKIMQSQIVSFYFKLFKNFKDDQSIQKSVETIKEDMNVKFFNSNKKKRDDFEKLTNYSVTDLNVQRKAIHELIQVMAELSPAAKTGKRKRSQMLFRGR | 0.015
3. Compound 3, mono-mPEG2-ru-MAL-20K-rhIFN-γ-1b-M135C (ring closed) (ligand, Cys135 thioether-linked to branched mPEG2-maleimide of about 20,000 daltons (mPEG2-MAL-20K), succinimide ring closed, also called mPEG2-MAL-20K-M135C-IFN-γ; M135C 20K branched (RC)) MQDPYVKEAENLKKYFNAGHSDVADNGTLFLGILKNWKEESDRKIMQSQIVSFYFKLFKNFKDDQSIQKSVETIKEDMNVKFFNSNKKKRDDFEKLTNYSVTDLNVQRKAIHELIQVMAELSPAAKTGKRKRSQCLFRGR | 4.38

Can you look up the measured EC50 (ng/mL)-% pSTAT1, CD14+CD16+ (Intermediate) monocytes of human PBMCs of Compound 1, mono-mPEG-MAL-10K-rhIFN-γ-1b-M135C (ligand, Cys135 thioether-linked to linear mPEG-maleimide of about 10,000 daltons (mPEG-MAL-10K), succinimide ring closed, also called mPEG-MAL-10K-M135C-IFN-γ; M135C 10K linear) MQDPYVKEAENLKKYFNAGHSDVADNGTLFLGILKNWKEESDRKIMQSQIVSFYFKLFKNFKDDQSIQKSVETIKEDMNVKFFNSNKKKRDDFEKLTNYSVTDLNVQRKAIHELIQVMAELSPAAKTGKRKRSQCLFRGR for me?
0.084
